test system: P. acnes (ATCC 6919)
recorded.endpoint: MIC (µg/mL)

structure.as.smiles | unit | MIC
CCCCCC/C=C\CCCCCCCC(=O)O | µg/mL | 1

a. CCCCCCCCCCCCCC[C@@H](O)[C@@H](O)[C@@H](N)CO
b. CCCCCCCCCCCCC/C=C/[C@@H](O)[C@@H](N)CO
c. Cc1ccc(C(C)C)c(O)c1
Query string: hey, can you rank those compounds up there by MIC? biggest number first please Answer by listing the labels in the order asked for.
Result string: c, b, a

The origin of these recorded values is patent US20210030646A1.
